# Organism: Homo sapiens
# ASSAY INFO: Binding affinity to human telomeric 5'-FAMd(G3[T2AG3]3)-TAMRA-3' assessed as melting temperature at 1 uM by FRET assay
MEASURED METRIC: ΔTm (°C)

1) NCCCn1cc(-c2ccc3ccc4ccc(-c5cn(CCCN)nn5)nc4c3n2)nn1 : 13.3
2) N=C(N)NCCCCn1cc(-c2ccc3ccc4ccc(-c5cn(CCCCNC(=N)N)nn5)nc4c3n2)nn1 : 17.3
3) N=C(N)NCCn1cc(-c2ccc3ccc4ccc(-c5cn(CCNC(=N)N)nn5)nc4c3n2)nn1 : 15
4) C[n+]1ccc(-c2c3nc(c(-c4cc[n+](C)cc4)c4ccc([nH]4)c(-c4cc[n+](C)cc4)c4ccc([nH]4)c(-c4cc[n+](C)cc4)c4nc2C=C4)C=C3)cc1 : 23.1
5) CC(C)/N=C(/NCCCn1cc(-c2ccc3ccc4ccc(-c5cn(CCCN/C(=N\C(C)C)NC(C)C)nn5)nc4c3n2)nn1)NC(C)C : 9.5

====

# ΔTm per entry
# Species: Homo sapiens
# ASSAY INFO: Binding affinity to hairpin 5'-FAM-TATAGCTATAT7ATAGCTATA-TAMRA-3' (unknown origin) assessed as melting temperature at 1 uM by FRET assay
MEASURED METRIC: ΔTm (°C)

1. CC(C)/N=C(/NCCCCn1cc(-c2ccc3ccc4ccc(-c5cn(CCCCN/C(=N\C(C)C)NC(C)C)nn5)nc4c3n2)nn1)NC(C)C : 1.3
2. N=C(N)NCCn1cc(-c2ccc3ccc4ccc(-c5cn(CCNC(=N)N)nn5)nc4c3n2)nn1 : 2.5
3. NCCCn1cc(-c2ccc3ccc4ccc(-c5cn(CCCN)nn5)nc4c3n2)nn1 : 1.2

Source of measurements: ChEMBL document CHEMBL3108761
